test system: HepG2 cells; experiment: General cytotoxicity on HepG2 cells; type: cell-based; details: therapeutic index, CC50 HepG2 / IC50 H1975
Answer each item with its documented TI, CC50/IC50.

Any idea what its TI, CC50/IC50 is? The compound is C=CC(=O)Nc1cc(Nc2cc(C(=O)c3ccc(OC)cc3)ccn2)c(OC)cc1N(C)CCN(C)C 620

Any idea what its TI, CC50/IC50 is? The compound is C=CC(=O)Nc1cc(Nc2nccc(C(=O)c3ccc(N4CC[C@H](OC)C4)cc3)n2)c(OC)cc1N(C)CCN(C)C 1970

Any idea what its TI, CC50/IC50 is? The compound is C=CC(=O)Nc1cc(Nc2nccc(C(=O)c3ccc(OCCC)cc3)n2)c(OC)cc1N(C)CCN(C)C 666

Any idea what its TI, CC50/IC50 is? The compound is C=CC(=O)Nc1cc(Nc2nccc(C(=O)c3ccccc3[N+](=O)[O-])n2)c(OC)cc1N(C)CCN(C)C 199

Any idea what its TI, CC50/IC50 is? The compound is C=CC(=O)Nc1cc(Nc2cc(C(=O)c3ccc(N4CCOCC4)cc3)ccn2)c(OC)cc1N(C)CCN(C)C.O=C(O)C(F)(F)F 309

Any idea what its TI, CC50/IC50 is? The compound is C=CC(=O)Nc1cc(Nc2cc(C(=O)c3ccc(N(C)C)cc3)ccn2)c(OC)cc1N(C)CCN(C)C.O=C(O)C(F)(F)F 419

Any idea what its TI, CC50/IC50 is? The compound is C=CC(=O)Nc1cc(Nc2nccc(C(=O)c3ccc(OCC)cc3)n2)c(OC)cc1N(C)CCN(C)C 1135

Any idea what its TI, CC50/IC50 is? The compound is C=CC(=O)Nc1cc(Nc2nccc(C(=O)c3ccc(N4CCC(C#N)CC4)cc3)n2)c(OC)cc1N(C)CCN(C)C 943

Any idea what its TI, CC50/IC50 is? The compound is C=CC(=O)Nc1cc(Nc2nccc(C(=O)c3ccc(N4CCN(C)CC4)cc3OC)n2)c(OC)cc1N(C)CCN(C)C 6514

Any idea what its TI, CC50/IC50 is? The compound is C=CC(=O)Nc1cc(Nc2nccc(C(=O)c3cc4ccccc4n3C)n2)c(OC)cc1N(C)CCN(C)C 1801

Any idea what its TI, CC50/IC50 is? The compound is C=CC(=O)Nc1cc(Nc2nccc(C(=O)c3ccccc3OC)n2)c(OC)cc1N(C)CCN(C)C 10285

Any idea what its TI, CC50/IC50 is? The compound is C=CC(=O)Nc1cc(Nc2nccc(C(=O)c3ccc(OCCCC)cc3)n2)c(OC)cc1N(C)CCN(C)C 278

Any idea what its TI, CC50/IC50 is? The compound is C=CC(=O)Nc1cc(Nc2nccc(C(=O)c3ccc(N(CC)CC)cc3)n2)c(OC)cc1N(C)CCN(C)C 1408

Any idea what its TI, CC50/IC50 is? The compound is C=CC(=O)Nc1cc(Nc2nccc(C(=O)c3ccc(OC(C)C)cc3)n2)c(OC)cc1N(C)CCN(C)C 1293

----------
molecular target: DM EGFR (DoubleMutantEGFR, L828R/T790M) (Homo sapiens, UniProt P00533, L858R/T790M); construct: purchased SignalChem; experiment: Inhibition of DM EGFR kinase activity (ADP-Glo); type: biochemical; settings: inhibition of kinase activity, EGFR DM (L828R/T790M)
endpoint: pIC50
Bear in mind: pIC50 is minus log10 of a mol/L concentration; give just that figure.

Any idea what its pIC50 is? The molecule is C=CC(=O)Nc1cc(Nc2nccc(C(=O)c3ccc(N(C)C)cc3)n2)c(OC)cc1N(C)CCN(C)C 8.63

Any idea what its pIC50 is? The molecule is C=CC(=O)Nc1cc(Nc2nccc(C(=O)c3ccccc3[N+](=O)[O-])n2)c(OC)cc1N(C)CCN(C)C 7.72

Any idea what its pIC50 is? The molecule is C=CC(=O)Nc1cc(Nc2nccc(C(=O)c3c(OC)cc(OC)cc3OC)n2)c(OC)cc1N(C)CCN(C)C 8.45

Any idea what its pIC50 is? The molecule is C=CC(=O)Nc1cc(Nc2nccc(C(=O)c3ccc(N4CCN(C)CC4)cc3OC)n2)c(OC)cc1N(C)CCN(C)C 8.63

Any idea what its pIC50 is? The molecule is C=CC(=O)Nc1cc(Nc2nccc(C(=O)c3ccc(NCCO)cc3)n2)c(OC)cc1N(C)CCN(C)C.O=CO [EGFR_3365_106, formate] 8.26

Any idea what its pIC50 is? The molecule is C=CC(=O)Nc1cc(Nc2nccc(C(=O)c3ccc(N4CCC(C#N)CC4)cc3)n2)c(OC)cc1N(C)CCN(C)C 8.64

Any idea what its pIC50 is? The molecule is C=CC(=O)Nc1cc(Nc2nccc(C(=O)c3ccc(N4CC[C@@H](O)C4)cc3)n2)c(OC)cc1N(C)CCN(C)C 8.60

Any idea what its pIC50 is? The molecule is C=CC(=O)Nc1cc(Nc2nccc(C(=O)c3ccc(Br)cc3)n2)c(OC)cc1N(C)CCN(C)C 7.74

Any idea what its pIC50 is? The molecule is C=CC(=O)Nc1cc(Nc2nccc(C(=O)c3ccc(N4CC[C@H](OC)C4)cc3)n2)c(OC)cc1N(C)CCN(C)C 8.69

Any idea what its pIC50 is? The molecule is C=CC(=O)Nc1cc(Nc2nccc(C(=O)c3ccc(N4CC[C@H](O)C4)cc3)n2)c(OC)cc1N(C)CCN(C)C.O=CO [EGFR_3365_112, formate] 8.69

Any idea what its pIC50 is? The molecule is C=CC(=O)Nc1cc(Nc2cc(C(=O)c3ccc(N(CC)CC)cc3)ccn2)c(OC)cc1N(C)CCN(C)C 8.26

Any idea what its pIC50 is? The molecule is C=CC(=O)Nc1cc(Nc2nccc(C(=O)c3ccc(N4CCCC4=O)cc3)n2)c(OC)cc1N(C)CCN(C)C 8.34

Any idea what its pIC50 is? The molecule is C=CC(=O)Nc1cc(Nc2nccc(C(=O)c3ccc(OCc4ccccc4)cc3)n2)c(OC)cc1N(C)CCN(C)C 7.48

Any idea what its pIC50 is? The molecule is C=CC(=O)Nc1cc(Nc2nccc(C(=O)c3cc4ccccc4n3C)n2)c(OC)cc1N(C)CCN(C)C 8.85

Any idea what its pIC50 is? The molecule is C=CC(=O)Nc1cc(Nc2nccc(C(=O)c3ccc(N4CCC[C@@H](OC)C4)cc3)n2)c(OC)cc1N(C)CCN(C)C 8.63

Any idea what its pIC50 is? The molecule is C=CC(=O)Nc1cc(Nc2nccc(C(=O)c3ccc(OCCOC)cc3)n2)c(OC)cc1N(C)CCN(C)C 8.12

Any idea what its pIC50 is? The molecule is C=CC(=O)Nc1cc(Nc2cc(C(=O)c3ccc(N(C)C)cc3)ccn2)c(OC)cc1N(C)CCN(C)C.O=C(O)C(F)(F)F [EGFR_3365_4, 2,2,2-trifluoroacetate] 7.67

Any idea what its pIC50 is? The molecule is C=CC(=O)Nc1cc(Nc2cc(C(=O)c3ccc(N4CCOCC4)cc3)ccn2)c(OC)cc1N(C)CCN(C)C.O=C(O)C(F)(F)F [EGFR_3365_5, 2,2,2-trifluoroacetate] 7.66

Any idea what its pIC50 is? The molecule is C=CC(=O)Nc1cc(Nc2nccc(C(=O)c3ccc(N4CCC(N)CC4)cc3)n2)c(OC)cc1N(C)CCN(C)C 9.05

Any idea what its pIC50 is? The molecule is C=CC(=O)Nc1cc(Nc2nccc(C(=O)c3ccc(N4CCC(N)CC4)cc3OC)n2)c(OC)cc1N(C)CCN(C)C 8.73

Any idea what its pIC50 is? The molecule is C=CC(=O)Nc1cc(Nc2nccc(C(=O)c3ccc(OC(C)C)cc3)n2)c(OC)cc1N(C)CCN(C)C 8.06

Any idea what its pIC50 is? The molecule is C=CC(=O)Nc1cc(Nc2nccc(C(=O)c3ccc(OC(C)C)cc3OC)n2)c(OC)cc1N(C)CCN(C)C 8.67

Any idea what its pIC50 is? The molecule is C=CC(=O)Nc1cc(Nc2nccc(C(=O)c3ccc(OCCCC)cc3)n2)c(OC)cc1N(C)CCN(C)C 8.73

Any idea what its pIC50 is? The molecule is C=CC(=O)Nc1cc(Nc2nccc(C(=O)c3ccc(N4CCC(N(C)C)CC4)cc3OC)n2)c(OC)cc1N(C)CCN(C)C 8.53

Any idea what its pIC50 is? The molecule is C=CC(=O)Nc1cc(Nc2nccc(C(=O)c3ccc(OCCC)cc3OC)n2)c(OC)cc1N(C)CCN(C)C 8.60

All values here come from patent US20200339544A1.
